Entry source: paper PMC8752837

target: GST-BAK (Homo sapiens); construct: made in house; assay: Competitive fluorescence polarization assay (displacement of BID BH3 SAHB-F); assay type: binding; settings: competitive FP; mean of the experiments (replicated 4-9 times); read-out: IC50 Mean
Sequence (Q16611 whole entry): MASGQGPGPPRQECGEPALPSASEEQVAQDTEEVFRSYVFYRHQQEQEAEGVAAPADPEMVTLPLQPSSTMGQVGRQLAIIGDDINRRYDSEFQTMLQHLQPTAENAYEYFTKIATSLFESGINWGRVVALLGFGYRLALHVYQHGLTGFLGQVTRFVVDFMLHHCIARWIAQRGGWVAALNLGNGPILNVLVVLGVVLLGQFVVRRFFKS
result.type: IC50
Please answer using a numeric value trailed by its unit.

Ac-EDIIRNIARHLAQMGDSMDRSI-NH2 [M(3)]: 4.6 µM

Now consider a different substance.
[in] Item under review: Ac-EDIIRNIARHLAQWGDSMDRSI-NH2 [W(3)] . Reported IC50?
[out] 6.6 µM

* * *

Consider the following substances; for each one, report its AUC for Experiment-3 (Mean).
Biological target: Human BAK-∆TM-His6 (BAK) (Homo sapiens, UniProt Q16611)
Construct: C-terminus truncated recombinant human BAK containing C-terminal 6× histidine tag (MEAS-BAK); made in house; host or cells: E. coli T7 Express pLac I/Y
Assay: Liposome permeabilization assay (ANTS/DPX dye release from LUVs): activation of WT BAK by BH3 peptides
Assay type: biochemical
Design: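 traces normalized between buffer minimum and 3% CHAPS maximum fluorescence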
Details: 1 μM peptide + 50 nM BAK; AUC 0-88 mins of liposome permeabilization; Experiment-3, mean of N replicates
From the text: We performed liposome permeabilization assays as previously described[43]–[46]. […] We quantified liposome permabilization by integrating area under curve (AUC) of normalized traces based on the Simpson’s equation, and analyzed that data in Excel and GraphPad Prism. AUC measurements reflect the kinetic and extent of liposome permeabilization and provide quantitative means for comparison between different experimental conditions (e.g., BAK mutants with gross or partial variation in activity).
Numbers only.

Ac-EDIIRNIARHLAQVGDSYDRSI-NH2 [Y(4)]: 23.05
Ac-EDIIRNIARHLAQWGDSMDRSI-NH2 [W(3)]: 8.9347
Ac-EDIIRNIARHLAQYGDSMDRSI-NH2 [Y(3)]: 12.187

Give me AUC for Experiment-3 (Mean) for each of these substances, listed below.
1. Ac-EDIIRNIARHFAQVGDSMDRSI-NH2 [F(2)]
2. Ac-EDIIRNIARHLAQVGDSWDRSI-NH2 [W(4)]
3. Ac-EDIWRNIARHLAQVGDSMDRSI-NH2 [W(0')]
4. Ac-EDIIRNIARHWAQVGDSMDRSI-NH2 [W(2)]
5. Ac-EDIIRNIARHLAQFGDSMDRSI-NH2 [F(3)]
6. Ac-EDIIRNWARHLAQVGDSMDRSI-NH2 [W(1)]

[out]
10.58
16.942
8.405
3.7546
16.388
5.218

Give me AUC for Experiment-3 (Mean) for each of these substances, listed below.
1. Ac-EDIIRNIARHLAQMGDSMDRSI-NH2 [M(3)]
2. Ac-EDIIRNIARHMAQVGDSMDRSI-NH2 [M(2)]
3. Ac-EDIIRNIARHLAQVGDSFDRSI-NH2 [F(4)]
4. Ac-EDWIRNIARHLAQVGDSMDRSI-NH2 [W(0)]
5. Ac-EDIIRNIARHYAQVGDSMDRSI-NH2 [Y(2)]

[out]
[19.004, 5.055, 8.9802, 14.8765, 3.7484]
